- study_target: Focal adhesion kinase 1 (Homo sapiens)
- experiment_description: FAK kinase inhibitors, primary screen, biochemical (AID 727)
- condition_set: biochemical FAK kinase activity assay;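 tested at 7 µM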
About 810 (0.84%) of roughly 97,000 compounds were called active. Rule as the data show it: active = inhibition above about 19%; inactive = the rest. The list comes from a sample in which actives are over-represented; it also holds close analogues and randomly drawn compounds.
Classes used: Yes for active, No for inactive

{"compound": "C/C=C/C(=O)OCC(=O)Nc1ccc(F)cc1Cl", "category": "No"}
{"compound": "Cc1cccc(N2CCN(C(=O)CN(C)S(=O)(=O)c3ccc4c(c3)CCC(=O)N4)CC2)c1C", "category": "No"}
{"compound": "Clc1ccccc1CSc1nnc(-c2ccco2)c(-c2ccco2)n1", "category": "Yes"}
{"compound": "O=[N+]([O-])c1ccc(Oc2ccc(F)cc2Br)c2ccncc12", "category": "Yes"}
{"compound": "Cc1nc2ccccc2c(-c2ccccc2)c1C(=O)c1ccccc1", "category": "No"}
{"compound": "CCc1ccccc1NC(=O)CSc1nnc([C@@H](NC(=O)OC(C)(C)C)C(C)CC)o1 (stereo partly specified)", "category": "Yes"}
{"compound": "CCOC(=O)C1=C(CN2CCc3ccccc32)NC(=O)NC1c1cc(C)ccc1C (stereo unspecified)", "category": "No"}
{"compound": "C#CCN(N(C)c1ncc(C(F)(F)F)cc1Cl)S(=O)(=O)c1ccc2ccccc2c1", "category": "No"}
{"compound": "COc1ccc(CC(NC(C)=O)C(=O)N2CCN(C(=O)Nc3cccc(Cl)c3)CC2)cc1OC (stereo unspecified)", "category": "No"}
{"compound": "CCOC(=O)CSc1nc2ccc(C)cc2[nH]1", "category": "No"}
{"compound": "CCCSc1nsc(N)n1", "category": "No"}
{"compound": "Cc1no[n+]([O-])c1COc1ccccc1/C=C1\\NC(=S)NC1=O", "category": "No"}
{"compound": "Cc1cccc(COc2ccccc2/C=N/Nc2ccc([N+](=O)[O-])cc2)c1", "category": "No"}
{"compound": "Cc1ccccc1OC(=O)Cn1c(C(F)(F)F)nc2ccccc21", "category": "No"}
{"compound": "NC(=O)c1ncc(C(F)(F)F)cc1Oc1ccc(F)cc1", "category": "No"}
{"compound": "C=CCn1c(=O)c2ccccc2n2c(SCC(=O)N3CCCc4ccccc43)nnc12", "category": "No"}
{"compound": "COc1ccc(N/N=C2/CCCCC2=O)cc1", "category": "No"}
{"compound": "CC(=O)c1ccc(Cc2ncc(C(F)(F)F)cc2Cl)s1", "category": "Yes"}
{"compound": "CCOc1ccc(N=Cc2c(O)n(-c3cccc(C)n3)c(=O)c3ccccc23)cc1", "category": "No"}
{"compound": "Cc1ccc(CN(N=Nc2nonc2N)c2nonc2N)c(C)c1", "category": "No"}
{"compound": "CC(=O)NS(=O)(=O)c1ccc(NC(=O)/C=C/c2ccccc2Cl)cc1", "category": "No"}
{"compound": "C[C@H](NC(=O)OC(C)(C)C)c1nnc(SCC(=O)Nc2ccc(Br)cc2)o1", "category": "No"}
{"compound": "Cc1cc(NC(=O)c2cnn3cccnc23)n(-c2ccccc2)n1", "category": "Yes"}
{"compound": "COc1ccc(C2CC(=O)Nc3sc(=N)c4c(N)c(C#N)c(N)nc4c32)cc1OC (stereo unspecified)", "category": "No"}
{"compound": "C=C(C)CNC(=S)/N=c1\\scc(C)n1CC", "category": "No"}
{"compound": "Cc1cc2cc3c(N)[nH]nc3nc2cc1C", "category": "Yes"}
